Test system: CP260
Experiment: qHTS profiling for inhibitors of Plasmodium falciparum proliferation (AID 504749); further: nearly all actives have a fitted effect of over 60% in size
Details: P. falciparum in erythrocytes, SYBR Green DNA, 72 h; series mostly up to 28.7 µM
Inconclusive results are not listed. The source made the active and inactive calls. The call rests on the fitted dose curve; in most records, active means well fitted inhibition curve with a large enough effect; inconclusive means small, poorly fitted or top-dose-only effect; inactive means flat fitted curve, though single readings scatter.
Give one outcome, nothing more. List: Y = active, N = inactive

The following molecules have reported results that may help.
{"columns": ["molecule", "target", "label"],
 "data": [
  ["C=C[C@@]1(C)C[C@H](OC(=O)CSC(C)(C)CNC(=O)[C@@H](N)C(C)C)[C@@]2(C)C(C)CC[C@@]3(CCC(=O)[C@@H]32)[C@H](C)[C@H]1O (stereo partly specified)", "CP260", "Y"],
  ["C[C@]12CC[C@@H]3c4ccc(O)cc4C[C@@H](CCCCCCCCCS(=O)CCCC(F)(F)C(F)(F)F)C3[C@@H]1CC[C@@H]2O (stereo partly specified)", "CP260", "Y"],
  ["C=C1CCC(O)C/C1=C/C=C1\\CCC[C@]2(C)[C@@H]([C@H](C)/C=C/[C@H](C)C(C)C)CC[C@@H]12 (stereo partly specified)", "CP260", "N"],
  ["O=C(O)CC(O)CC(O)/C=C/c1c(C2CC2)nc2ccccc2c1-c1ccc(F)cc1 (stereo unspecified)", "CP260", "N"]
]}

Q: I would be grateful if you could indicate the recorded call for "C#C[C@@]1(O)CC[C@@H]2[C@H]3CCC4=C/C(=N\O)CC[C@H]4[C@@H]3CC[C@]21CC" .
Ans: N

Q: Tell me the recorded outcome of this test for "CO/N=C(/C(=O)N[C@@H]1C(=O)N2C(C(=O)O)=C(CSc3cnns3)CS[C@H]12)c1csc(N)n1" .
Ans: N

Q: In this assay, the call recorded for "O=C(O)c1ccc(N[C@@H]2OC[C@@H](O)[C@@H](O)[C@@H]2O)cc1" was what?
Ans: N

Q: Which outcome was assigned to OCCN1CC(O)C(O)C(O)C1CO (stereo unspecified) in this test?
Ans: N

Reference source for all entries: PubChem BioAssay (NCATS)
